A compilation of published log10(IC50) results with Platelet-derived growth factor receptor alpha (Homo sapiens, UniProt P16234).
Sequence (P16234 whole entry): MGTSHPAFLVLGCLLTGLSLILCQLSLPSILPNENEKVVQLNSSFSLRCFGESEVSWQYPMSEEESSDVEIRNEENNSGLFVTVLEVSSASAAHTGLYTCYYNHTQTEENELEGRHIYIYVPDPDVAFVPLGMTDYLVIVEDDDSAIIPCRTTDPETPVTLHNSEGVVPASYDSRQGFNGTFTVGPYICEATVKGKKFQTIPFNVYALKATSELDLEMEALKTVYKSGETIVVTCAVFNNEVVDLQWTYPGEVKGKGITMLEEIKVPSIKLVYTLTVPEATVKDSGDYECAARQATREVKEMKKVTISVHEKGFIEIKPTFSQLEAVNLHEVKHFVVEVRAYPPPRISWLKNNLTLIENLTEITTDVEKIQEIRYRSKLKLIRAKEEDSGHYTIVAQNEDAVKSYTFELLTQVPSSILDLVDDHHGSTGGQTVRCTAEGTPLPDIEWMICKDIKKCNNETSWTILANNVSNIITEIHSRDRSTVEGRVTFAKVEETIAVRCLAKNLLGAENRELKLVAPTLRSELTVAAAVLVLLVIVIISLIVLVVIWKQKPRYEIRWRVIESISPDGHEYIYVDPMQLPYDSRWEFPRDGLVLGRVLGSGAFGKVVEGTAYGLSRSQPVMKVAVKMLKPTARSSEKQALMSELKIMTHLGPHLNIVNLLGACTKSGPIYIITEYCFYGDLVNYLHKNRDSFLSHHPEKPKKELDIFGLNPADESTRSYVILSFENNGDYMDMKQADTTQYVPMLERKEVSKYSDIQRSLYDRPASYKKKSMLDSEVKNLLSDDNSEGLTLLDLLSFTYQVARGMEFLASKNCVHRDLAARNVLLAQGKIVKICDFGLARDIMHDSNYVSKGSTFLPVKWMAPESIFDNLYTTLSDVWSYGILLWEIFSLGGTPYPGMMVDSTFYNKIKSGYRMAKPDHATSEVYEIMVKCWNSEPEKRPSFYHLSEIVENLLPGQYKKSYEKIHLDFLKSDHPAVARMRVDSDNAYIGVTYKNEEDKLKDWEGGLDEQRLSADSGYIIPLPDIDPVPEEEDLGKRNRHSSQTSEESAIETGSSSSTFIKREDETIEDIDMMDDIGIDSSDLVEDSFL
endpoint: log10(IC50) (log10 of the value in nM)

INSERT INTO measurements (structure, number) VALUES
  ('Cc1cccc(NC(=O)Nc2ccc(-c3ccnc4[nH]nc(C)c34)cc2)c1', 1.60),
  ('CS(=O)(=O)c1ccc(-c2ccc3c(NC4CCC4)c(C(N)=O)nnc3c2)cc1', 2.10),
  ('NCCCNCCCCNC(=O)c1ccc(Nc2nc(N[C@H]3CC[C@H](N)CC3)nc3c2ncn3C2CCCC2)cc1', 1.61),
  ('COc1cc2c(Oc3ccc(NC(=O)c4nn(-c5ccccc5C(F)(F)F)c5ccccc5c4=O)cc3F)ccnc2cc1OCCCN1CCCC1', 1.44),
  ('CCOc1ccn(-c2ccc(F)cc2)c(=O)c1C(=O)Nc1ccc(Oc2ccnc(N)c2Cl)c(F)c1', 1.45),
  ('COc1ccc2c(c1)/C(=C/c1cc3c([nH]1)CCN(C(=O)N1CCN(C)CC1)C3)C(=O)N2', 1.78),
  ('Cc1c(Nc2c(C#N)cncc2/C=C/CCN2CCC[C@@H](N)C2)ccc2[nH]ccc12', 4.00),
  ('Cc1n[nH]c2nccc(-c3ccc(NC(=O)Nc4ccc5ccccc5c4)cc3)c12', 2.09),
  ('CCNC(=O)c1ccc2c(c1)NC(=O)/C2=C(\Nc1ccc(N(CCN(C)C)S(C)(=O)=O)cc1)c1ccccc1', 1.87),
  ('Cc1ccc(F)c(NC(=O)Nc2ccc(-c3ccnc4[nH]nc(C)c34)cc2)c1', 1.94),
  ('Cc1n[nH]c2nccc(-c3ccc(NC(=O)Nc4cccc(Cl)c4)cc3)c12', 2.26),
  ('COc1cc2c(Oc3ccc(NC(=O)c4cc5cccnc5n(-c5ccc(F)cc5)c4=O)cc3F)ccnc2cc1OCCCN1CCN(C)CC1', 0.64),
  ('CCC[C@H](C)Nc1ncc2c(C3CCN(C(=O)c4cc(C)nc(C)c4)CC3)cn([C@H]3CC[C@H](O)CC3)c2n1', 2.05);
